- System: Pseudomonas aeruginosa (ATCC 27853)
- Particulars: standard strain
Ends that are not written are not given here.
Reported Property: MIC P. aerugmosa ATCC27853 (µM)
State the answer as a number, implicitly in µM.

Sample records with MIC P. aerugmosa ATCC27853:
H-PWRLSLRL-NH2 [Compound 14] :: 8
H-PFRLRLHL-NH2 [Compound 5] :: 32
Pro-Trp-Orn-Leu-Orn-Leu-His-Leu-NH2 (PWXLXLHL; HELM PEPTIDE1{P.W.[Orn].L.[Orn].L.H.L.[am]}$$$$V2.0; N-terminus assumed; SMILES CC(C)C[C@H](NC(=O)[C@H](Cc1c[nH]cn1)NC(=O)[C@H](CC(C)C)NC(=O)[C@H](CCCN)NC(=O)[C@H](CC(C)C)NC(=O)[C@H](CCCN)NC(=O)[C@H](Cc1c[nH]c2ccccc12)NC(=O)[C@@H]1CCCN1)C(N)=O) [Compound 9] :: 8

// query Query MIC P. aerugmosa ATCC27853 for PWRLRLRL-NH2 [Compound 15]
// result 8

// query Query MIC P. aerugmosa ATCC27853 for Pro-Phe-Lys-Leu-Ser-Leu-His-Leu-NH2 (PFKLSLHL-NH2) [Compound J-1, reference compound]
// result 32

* * *

substances and their reported LD50
- Assay Details: Acute toxicity in mice
- Set-up: species or system Kunming mice
- Particulars: mouse, in vivo, ip, intraperitoneal injection, Karber method
Ends that are not written are not given here.

Sample records with LD50:
PWRLRLHL-NH2 [Compound 13] :: > 1000 mg/kg
PWRLRLRL-NH2 [Compound 15] :: > 1000 mg/kg

Okay, now this substance:
// query Query LD50 for PWKLSLHL-NH2 [Compound 8]
// result > 1000 mg/kg

* * *

substances and their reported MIC
- Test system: S-4a, clinical isolated drug-resistant strain MRSA
- Particulars: strain S-4a (MRSA)
Ends that are not written are not given here.
State the answer as a number, implicitly in µM.

Sample records with MIC:
PWRLRLRL-NH2 [Compound 15] :: 8
PWRLRLHL-NH2 [Compound 13] :: 32

// query Report value only: MIC, S-4a, clinical isolated drug-resistant strain MRSA, PWKLSLHL-NH2 [Compound 8]
// result 64

// query Report value only: MIC, S-4a, clinical isolated drug-resistant strain MRSA, Pro-Phe-Lys-Leu-Ser-Leu-His-Leu-NH2 (PFKLSLHL-NH2) [Compound J-1, reference compound]
// result 128

// query Report value only: MIC, S-4a, clinical isolated drug-resistant strain MRSA, Pro-Trp-Orn-Leu-Orn-Leu-His-Leu-NH2 (PWXLXLHL; HELM PEPTIDE1{P.W.[Orn].L.[Orn].L.H.L.[am]}$$$$V2.0; N-terminus assumed; SMILES CC(C)C[C@H](NC(=O)[C@H](Cc1c[nH]cn1)NC(=O)[C@H](CC(C)C)NC(=O)[C@H](CCCN)NC(=O)[C@H](CC(C)C)NC(=O)[C@H](CCCN)NC(=O)[C@H](Cc1c[nH]c2ccccc12)NC(=O)[C@@H]1CCCN1)C(N)=O) [Compound 9]
// result 64

* * *

substances and their reported MIC C. sakazakii ATCC29544
- Tested on: Cronobacter sakazakii (ATCC 29544)
- Particulars: ATCC 29544
Ends that are not written are not given here.
State the answer as a number, implicitly in µM.

Sample records with MIC C. sakazakii ATCC29544:
PWKLSLHL-NH2 [Compound 8] :: 16
H-PFRLSLHL-NH2 [Compound 4] :: 32
PWRLRLHL-NH2 [Compound 13] :: 8
H-PFRLRLRL-NH2 [Compound 7] :: 32

// query Query MIC C. sakazakii ATCC29544 for PWRLRLRL-NH2 [Compound 15]
// result 8

// query Query MIC C. sakazakii ATCC29544 for H-PFRLSLRL-NH2 [Compound 6]
// result 16

// query Query MIC C. sakazakii ATCC29544 for H-PWRLSLHL-NH2 [Compound 12]
// result 16
